molecular target: OXPHOS complex III (Bos taurus, UniProt P00125+P00157+P13272); conditions: read-out: IC50, complex III activity
Quantity name: IC50

query: Give the measured IC50 for C=CCc1ccc(O)c(-c2cc(CC=C)ccc2O)c1 [magnolol]
result: 19.4 µM

###

target: OXPHOS complex IV (Bos taurus, UniProt P00396+P68530); assay: biochemical
Quantity name: IC50 (µM)
Please respond with the number in µM and leave the unit unwritten.

query: Give the measured IC50 for C=CCc1ccc(O)c(-c2cc(CC=C)ccc2O)c1
result: 10.9

###

target: OXPHOS complex II (Bos taurus, UniProt P31039+P35720+Q3T189+Q95123); experiment: biochemical
Sequence (Q95123 56-158): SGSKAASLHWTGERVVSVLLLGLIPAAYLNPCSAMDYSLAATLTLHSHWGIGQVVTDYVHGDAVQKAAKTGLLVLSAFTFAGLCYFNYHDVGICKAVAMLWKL
Sequence (P31039 44-665): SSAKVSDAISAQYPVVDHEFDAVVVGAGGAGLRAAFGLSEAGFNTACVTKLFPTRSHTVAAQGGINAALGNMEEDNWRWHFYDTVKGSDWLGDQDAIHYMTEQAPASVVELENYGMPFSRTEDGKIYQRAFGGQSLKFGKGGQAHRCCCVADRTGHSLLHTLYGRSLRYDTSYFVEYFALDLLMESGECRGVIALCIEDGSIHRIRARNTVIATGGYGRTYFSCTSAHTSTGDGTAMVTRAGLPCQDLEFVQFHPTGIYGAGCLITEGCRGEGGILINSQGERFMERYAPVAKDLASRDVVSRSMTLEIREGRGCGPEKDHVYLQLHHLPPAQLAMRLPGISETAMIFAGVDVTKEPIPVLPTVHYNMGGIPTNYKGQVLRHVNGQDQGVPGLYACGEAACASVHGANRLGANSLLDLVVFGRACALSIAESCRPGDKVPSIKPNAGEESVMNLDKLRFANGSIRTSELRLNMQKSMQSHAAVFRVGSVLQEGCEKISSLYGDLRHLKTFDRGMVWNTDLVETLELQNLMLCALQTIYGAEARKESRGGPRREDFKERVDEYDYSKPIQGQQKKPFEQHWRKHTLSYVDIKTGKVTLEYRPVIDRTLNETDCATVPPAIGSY
Sequence (P35720 30-169): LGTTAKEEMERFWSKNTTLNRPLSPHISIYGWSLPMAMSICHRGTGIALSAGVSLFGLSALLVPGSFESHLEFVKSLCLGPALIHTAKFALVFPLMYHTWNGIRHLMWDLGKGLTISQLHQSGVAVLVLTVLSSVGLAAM
Sequence (Q3T189 29-280): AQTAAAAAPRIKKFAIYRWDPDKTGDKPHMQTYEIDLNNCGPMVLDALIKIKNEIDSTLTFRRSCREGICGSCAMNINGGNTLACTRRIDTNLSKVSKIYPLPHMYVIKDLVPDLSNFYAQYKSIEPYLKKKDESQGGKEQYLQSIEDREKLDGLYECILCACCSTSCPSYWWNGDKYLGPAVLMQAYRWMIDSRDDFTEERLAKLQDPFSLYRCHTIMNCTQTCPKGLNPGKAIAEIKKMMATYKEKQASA
Quantity name: pIC50
For clarity, pIC50 is expressed as the negative log10 of concentration in mol/L.

query: Give the measured pIC50 for C=CCc1ccc(O)c(-c2cc(CC=C)ccc2O)c1
result: 5.08

Hello, the source for this data is paper PMC8775252, in case you need it.
